Molecular target: MLLT3 (Homo sapiens, UniProt P42568)
Sequence (P42568 whole entry): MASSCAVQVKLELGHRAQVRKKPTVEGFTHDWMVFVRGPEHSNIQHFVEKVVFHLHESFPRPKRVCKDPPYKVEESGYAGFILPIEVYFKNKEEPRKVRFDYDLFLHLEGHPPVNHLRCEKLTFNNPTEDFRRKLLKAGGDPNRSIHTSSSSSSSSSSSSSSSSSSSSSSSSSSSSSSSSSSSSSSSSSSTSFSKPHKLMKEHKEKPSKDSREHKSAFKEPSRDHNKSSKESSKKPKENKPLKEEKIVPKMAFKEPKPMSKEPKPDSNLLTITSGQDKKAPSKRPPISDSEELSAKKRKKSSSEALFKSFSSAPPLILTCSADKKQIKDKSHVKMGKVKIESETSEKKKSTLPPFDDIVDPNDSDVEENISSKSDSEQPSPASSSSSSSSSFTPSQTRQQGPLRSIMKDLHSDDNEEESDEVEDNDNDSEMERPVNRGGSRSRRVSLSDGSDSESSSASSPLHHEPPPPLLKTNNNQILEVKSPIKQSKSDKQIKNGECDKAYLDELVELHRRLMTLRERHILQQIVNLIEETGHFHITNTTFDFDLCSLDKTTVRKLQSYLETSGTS
Test: HTRF IC50 determination assay, MLLT3 / H3K9cro peptide displacement
Settings: MLLT3 assay IC50 (nM), 6His tagged MLLT3, biotinylated H3K9cro peptide, compound 20 μM to 20 nM, 11 data points in duplicate
Counter-ions that a name gives are not always drawn.
# IC50 per entry

Identify measured IC50 associated with CCc1nnc2cc(C(=O)Nc3ccc4nc(C5CCCN5C)cn4c3)ccn12 (racemic) [Example 35, formate] 1500 to 20000 nM

Given the compound CN1CCCC1c1cn2cc(NC(=O)c3ccc4c(cnn4C)c3Cl)ccc2n1 (racemic) , write its reported IC50. > 20000 nM

Output IC50 of Cc1noc2cc(C(=O)Nc3ccc4nc(C5CCCN5C)cn4c3)ccc12 (racemic) 1500 to 20000 nM

Quote IC50 reported for `CCc1nn(C)c2cc(C(=O)Nc3cn4cc([C@H]5CCCN5C)nc4cn3)ccc12` please. 150 to 1500 nM

Supply reported IC50 belonging to this compound: CN1CCCC1c1cn2cc(NC(=O)c3ccc(-c4cnn(C)c4)cc3F)ccc2n1 (single isomer, unassigned) 150 to 1500 nM
